Reference source: patent US20250081967A1

# Test system: Diabrotica balteata
# Assay Summary: Activity against Diabrotica balteata (corn root worm), maize sprouts
# Assay type: in vivo
# Measurement Parameters: concentration 50 ppm
Readout: Mortality (%)
Report only the number, with the unit % understood.

Completed entries (count: 4):
Compound	Mortality (%)
CCS(=N)(=O)c1cc(C2(C#N)CC2)ccc1-c1nc2cc(C(F)(F)F)ncc2n1C (single isomer, unassigned)	100
CCn1c(C(F)(F)F)cc2nc(-c3ncc(C4(C#N)CC4)cc3S(=N)(=O)CC)n(C)c2c1=O (single isomer, unassigned) [Compound P14-A]	80
CCS(=N)(=O)c1cc(C2(C#N)CC2)ccc1-c1nc2cc(C(F)(F)F)cnc2n1C (single isomer, unassigned)	80
CCS(=N)(=O)c1cc(OC(C)(C)C#N)cnc1-c1nc2cc(C(F)(F)F)ncc2n1C (single isomer, unassigned)	100

Turning to the following compound.
Entry CCn1c(C(F)(F)F)cc2nc(-c3ncc(C4(C#N)CC4)cc3S(=N)(=O)CC)n(C)c2c1=O (single isomer, unassigned) [Compound P14-B] ; Mortality (%) = 50
